system: SK-MEL-28 melanoma; assay: NCI-60 one-dose screen, 48 h (100 = growth as untreated, 0 = no growth, -100 = all killed); conditions: 10 µM unless noted
The panel holds about 83,000 compounds, 20% with a hit somewhere; the sample as a whole holds those more often.
Attribute: growth
VALUE KIND: growth (%)

1. COc1ccc(-n2sc(=O)n(Cc3ccc(COC(=O)C(C)c4ccc(CC(C)C)cc4)cc3)c2=O)cc1 (stereo unspecified) :: 52.8
2. Cc1cnc(Nc2ccc(OCCN3CCCC3)cc2)nc1NCc1ccco1 :: 103
3. O=C(Nc1ccccc1Cl)OCCN1CCOCC1 :: 110
4. O=C1CSC(c2ccccc2)N1c1ccccc1 (stereo unspecified) :: 106
5. Cc1nc(Nc2ccc(NC(=S)Nc3ccccc3)cc2)nc2nc(Nc3ccc(S(=O)(=O)O)cc3)[nH]c(=O)c12 :: 125
6. CCOC(=O)c1c(C)[nH]c(C(=O)CCC(=O)OC)c1C :: 111
7. CCCN1CCN(c2ccc3nc(-c4ccc5nc(-c6cc(OC)c(OC)c(OC)c6)[nH]c5c4)[nH]c3c2)CC1 :: 57.8
8. c1ccc2c(c1)nc(-n1ccnc1)c1nc3ccccc3n12 :: 82.5
9. CSc1nc2sc3cc(Cl)ccc3n2c(=N)c1C#N :: 41.9
10. Cc1[nH]c(-c2nc3ccccc3[nH]2)c(C)c1C(=O)N1CCc2sccc2C1 :: 94.5
11. CCN(CC)CCOc1ccc(/C(=C(\C)c2ccc(OC)c(F)c2)c2ccc(Cl)cc2)cc1 :: 68
12. CNC(=O)NCC1OC(n2cnc3c(NC(=O)Nc4ccccc4)ncnc32)C2OC(C)(C)OC12 (stereo unspecified) :: 91.7
13. Cc1nc2ccccc2c(/C=C/c2ccc(Cl)cc2)c1C(=O)/C=C/c1ccc(Cl)cc1 :: -66.6
14. O=C1CSC(c2ccccc2O)N1c1nnc(Cn2cnnc2)o1 (stereo unspecified) :: 102
15. Cn1ccc(Cc2cnc(N)s2)n1 :: 106
16. Cc1ccccc1NC(=O)CN(C)C :: 96.9
17. COc1cc(/C=C/C(=O)c2cccc(-n3cc(-c4ccc(Cl)cc4)[nH]c3=O)c2)cc(OC)c1OC :: 86.5
18. CCCCNC(=O)NS(=O)(=O)c1ccc(N2N=C(c3ccc(C)cc3C)CC2c2ccc(N(C)C)cc2)cc1 (stereo unspecified) :: 45.5
19. COC(=O)c1ccc(CSc2nnc(-c3ccncc3)o2)cc1 :: 107
20. Cc1cc(N2CCCCC2)nc(N(CCNc2ccnc3cc(Cl)ccc23)Cc2ccccn2)n1 :: 62.7
21. C[C@@H]1C(=O)N(C[C@H](Cc2ccccc2)NC(=O)OCc2ccccc2)[C@]1(Cc1ccccc1)C(=O)OC(C)(C)C :: 85.3
22. O=c1cc(-c2ccc(OCc3ccccc3)cc2)oc2c(I)c(OCc3ccccc3)cc(OCc3ccccc3)c12 :: 107
23. CC(=O)Nc1nccs1 :: 98.6
24. N#Cc1c(Oc2ccc([N+](=O)[O-])cc2)nc2sc3cc(Cl)ccc3n2c1=N :: 84.1
25. CCCCCCNCc1cc(C(C)(C)C)cc(CNCCCCCC)c1O :: -88.8
26. COc1ccc(C(=O)/C=C/C23c4ccccc4C(c4ccccc42)C2C(=O)NC(=O)C23)cc1 (stereo unspecified) :: 108
27. COc1ccc(-c2cc(-c3ccc(Nc4nc(Nc5ccccc5)nc(Nc5ccc(Cl)cc5)n4)cc3)nc(N)n2)cc1 :: 84.8
28. N[C@H]1CCC[C@@H]1NCCCCN1C(=O)c2cccc3cccc(c23)C1=O :: 90.3
29. COc1ccc(OC)c(C(=O)Nc2cccc(-c3cc(=O)c4ccccc4o3)c2)c1 :: 104
30. COc1ccc(Oc2nc(Nc3ccc(N4CCCCC4)nc3)ncc2NC(=O)c2cc(OC)cc(OC)c2)cc1 :: 53.9
31. OC(COc1cccc2ccccc12)CN1CCN(c2ccccc2)CC1 (stereo unspecified) :: 105
32. CC(C)CCC[C@@H](C)[C@H]1CCC2C3=CCn4c(=O)ccc(=O)n4C3CC[C@@]21C (stereo partly specified) :: -93
33. O=C1Nc2ccccc2/C1=N/N=C/c1ccc(OC2OC(CO)C(O)C(O)C2O)cc1 (stereo unspecified) :: 108
34. NC(=S)c1csc(CCNC(=O)c2ccccc2)n1 :: 108
35. CCOC(=O)c1ccc(NC(=O)CCCN(CC)CC)cc1 :: 109
36. COc1ccccc1NC(=O)Nc1ccc(-c2nc3ccccc3o2)cc1 :: 111
37. COc1cc(C2C=C(c3cccc(NC(C)=O)c3)Nc3ncnn32)cc(OC)c1OC (stereo unspecified) :: 51.5
38. COc1ccc(-c2nc3sccn3c2/C=C/C(=O)c2c[nH]c3ccccc23)cc1 :: 76.7
39. Clc1ccc(-c2nc(NCCc3ccccc3)nc3c(NCCc4ccccc4)cnn23)cc1 :: 75.2
40. Nc1nc(N)c(-c2ccc(Cl)cc2)c(/C=C/c2ccc([N+](=O)[O-])cc2)n1 :: 95.7
41. COc1ccccc1C(=O)NC(=S)Nc1ccc(-c2nc3ccccc3[nH]2)cc1 :: 69.5
